Biological target: Protein-glutamine gamma-glutamyltransferase (Homo sapiens)
Sequence (whole entry): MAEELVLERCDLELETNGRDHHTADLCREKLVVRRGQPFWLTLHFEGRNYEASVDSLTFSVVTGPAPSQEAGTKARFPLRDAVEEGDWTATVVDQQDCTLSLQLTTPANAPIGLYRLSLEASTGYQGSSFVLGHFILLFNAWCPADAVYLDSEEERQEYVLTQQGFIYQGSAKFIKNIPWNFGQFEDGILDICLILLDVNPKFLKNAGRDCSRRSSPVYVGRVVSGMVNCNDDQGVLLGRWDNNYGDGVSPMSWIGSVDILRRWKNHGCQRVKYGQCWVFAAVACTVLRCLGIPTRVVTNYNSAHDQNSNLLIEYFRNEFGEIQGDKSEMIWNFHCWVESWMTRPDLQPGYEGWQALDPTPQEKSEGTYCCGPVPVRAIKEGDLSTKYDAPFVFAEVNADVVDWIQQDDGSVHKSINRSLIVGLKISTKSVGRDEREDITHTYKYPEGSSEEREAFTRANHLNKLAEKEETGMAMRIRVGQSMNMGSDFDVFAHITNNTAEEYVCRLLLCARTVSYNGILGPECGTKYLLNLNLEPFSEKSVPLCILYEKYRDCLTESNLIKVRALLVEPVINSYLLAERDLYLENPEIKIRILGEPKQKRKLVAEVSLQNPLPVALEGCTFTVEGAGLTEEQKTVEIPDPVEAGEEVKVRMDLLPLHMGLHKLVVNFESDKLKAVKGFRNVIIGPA
Assay: Inhibition of recombinant human TG2 expressed in Escherichia coli assessed as Kinact using Cbz-Glu(gamma-p-nitrophenyl ester)Gly (AL5) as substrate by colorimetric assay
property_measured: Kinact (min⁻¹)

Worked cases, answers included:
>  <structure_string>
C=CC(=O)NCC(=O)N1CCN(C(=O)C23CC4CC(CC(C4)C2)C3)CC1

>  <Kinact, min⁻¹>
1.34

$$$$
>  <structure_string>
C=CC(=O)NCCC(=O)N1CCN(S(=O)(=O)c2cccc3c(N(C)C)cccc23)CC1

>  <Kinact, min⁻¹>
0.25

$$$$

I. C=CC(=O)NCCCCC(=O)N1CCN(S(=O)(=O)c2cccc3c(N(C)C)cccc23)CC1
II. C=CC(=O)NCCCCCC(=O)N1CCN(C(=O)C23CC4CC(CC(C4)C2)C3)CC1
Dear colleague, could you let me know whether I or II has the lower recorded Kinact? Thanks. Answer by quoting the chosen item's label. II
(II: 0.36 min⁻¹, I: 0.55 min⁻¹)
